Data origin: the supplement of paper PMC8728848

Target: Gal(b1-4)GlcNAc(b1-3)Gal(b1-4)GlcNAc(b1-3)Gal(b1-4)GlcNAc
Experiment: glycan array binding signal (z-score within array); higher = stronger binding
Settings: glycan notation: IUPAC condensed, linker removed
The entries come from a sample that favours the strongest signals as a whole.

binder	glycan array binding signal (z-score)
RSVL (Crotalus atrox), P21963 (protein) NNCPLDWLPMNGLCYKIFNQLKTWEDAEMFCRKYKPGCHLASFHRYGESLEIAEYISDYHKGQENVWIGLRDKKKDFSWEWTDRSCTDYLTWDKNQPDHYQNKEFCVELVSLTGYRLWNDQVCESKDAFLCQCKF	-0.23
BC2L-D C-terminal domain (Burkholderia cenocepacia), Q39MQ9_BURS3 (protein) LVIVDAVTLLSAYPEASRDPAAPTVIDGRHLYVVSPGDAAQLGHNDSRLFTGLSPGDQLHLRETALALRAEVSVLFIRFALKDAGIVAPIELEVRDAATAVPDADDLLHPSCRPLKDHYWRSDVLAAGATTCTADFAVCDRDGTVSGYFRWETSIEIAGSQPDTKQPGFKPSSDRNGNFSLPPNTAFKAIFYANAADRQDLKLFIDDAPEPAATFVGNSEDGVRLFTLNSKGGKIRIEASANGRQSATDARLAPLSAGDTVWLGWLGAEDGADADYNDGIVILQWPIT	-0.242
RBMC2 (Vibrio cholerae) (protein) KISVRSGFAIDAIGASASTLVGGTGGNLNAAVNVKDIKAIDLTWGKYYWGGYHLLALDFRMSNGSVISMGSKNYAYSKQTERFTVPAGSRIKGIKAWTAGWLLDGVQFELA	-0.368
Pwp5 ND (Candida glabrata) (protein) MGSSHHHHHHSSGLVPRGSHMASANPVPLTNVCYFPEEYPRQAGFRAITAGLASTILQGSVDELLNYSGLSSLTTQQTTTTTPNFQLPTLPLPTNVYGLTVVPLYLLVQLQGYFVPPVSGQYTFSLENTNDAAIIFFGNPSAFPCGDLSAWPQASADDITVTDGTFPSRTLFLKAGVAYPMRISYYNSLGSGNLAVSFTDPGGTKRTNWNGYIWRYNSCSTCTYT	-0.555
SRS6 (Toxoplasma gondii), Q9NH12 (protein) MARTGSMQQRRGGFQTTARMLMAVCVSGVLLLSSGPSSANKLTEGQQNQNSGPGAATQEGPTIEGAVAKCVLKTTAAENGSSRAKNTTGLTLSKENLVVSLQCSGEKNAIVPKDQKKVCSAAPNAKVADCKGADTDKQVTLKSLLGTSGDIQWEKTIVSTDNKGEVMTLKIKESELPLFDKAFFVGCEEDKAQTRTSQATECKVNVSVKARPSTVGENNVVTCAYGKDSNPRPLEVEMSADNDTLTIDCGTDGSLKPTKYTEEFCVTDNSQLESCTTKKFSEILPTFLPSWWVSDSQNGSAKLTIPESGFPEEQQQFRLGCVPKKTTQSPQANPSVKTEKEEGAQNTDASTSNCSVIVTVKASNFSSLASSIAPTAAVAGGAAALTGFLVGSF	2.32
Clone646PsrP (Streptococcus pneumoniae) (protein) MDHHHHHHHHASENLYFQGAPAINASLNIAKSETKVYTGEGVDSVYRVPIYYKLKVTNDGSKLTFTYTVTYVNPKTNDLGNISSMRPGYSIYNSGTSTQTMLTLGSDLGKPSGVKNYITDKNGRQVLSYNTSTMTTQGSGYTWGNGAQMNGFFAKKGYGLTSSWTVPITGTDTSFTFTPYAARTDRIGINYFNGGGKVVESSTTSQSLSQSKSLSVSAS	-0.913
